Target: T1, IL-18 receptors on HEK-Blue IL-18 reporter cells (UniProt Q13478 19-541; O95256 20-599, limits assumed); further: unit not given here
T1 sequence (looked up) 1: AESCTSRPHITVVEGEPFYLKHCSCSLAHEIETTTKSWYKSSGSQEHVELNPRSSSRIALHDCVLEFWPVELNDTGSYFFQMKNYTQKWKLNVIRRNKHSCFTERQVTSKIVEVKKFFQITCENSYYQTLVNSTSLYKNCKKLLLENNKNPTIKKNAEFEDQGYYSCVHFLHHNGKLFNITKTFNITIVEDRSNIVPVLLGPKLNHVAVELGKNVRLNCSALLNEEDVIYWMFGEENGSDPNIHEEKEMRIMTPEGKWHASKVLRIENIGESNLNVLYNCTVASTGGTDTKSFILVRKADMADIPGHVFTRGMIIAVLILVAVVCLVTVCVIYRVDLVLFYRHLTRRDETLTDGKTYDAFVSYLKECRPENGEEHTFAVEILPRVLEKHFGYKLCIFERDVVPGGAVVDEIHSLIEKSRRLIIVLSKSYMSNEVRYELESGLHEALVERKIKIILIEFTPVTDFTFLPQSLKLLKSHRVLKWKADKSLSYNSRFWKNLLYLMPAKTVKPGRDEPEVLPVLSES
T1 sequence (looked up) 2: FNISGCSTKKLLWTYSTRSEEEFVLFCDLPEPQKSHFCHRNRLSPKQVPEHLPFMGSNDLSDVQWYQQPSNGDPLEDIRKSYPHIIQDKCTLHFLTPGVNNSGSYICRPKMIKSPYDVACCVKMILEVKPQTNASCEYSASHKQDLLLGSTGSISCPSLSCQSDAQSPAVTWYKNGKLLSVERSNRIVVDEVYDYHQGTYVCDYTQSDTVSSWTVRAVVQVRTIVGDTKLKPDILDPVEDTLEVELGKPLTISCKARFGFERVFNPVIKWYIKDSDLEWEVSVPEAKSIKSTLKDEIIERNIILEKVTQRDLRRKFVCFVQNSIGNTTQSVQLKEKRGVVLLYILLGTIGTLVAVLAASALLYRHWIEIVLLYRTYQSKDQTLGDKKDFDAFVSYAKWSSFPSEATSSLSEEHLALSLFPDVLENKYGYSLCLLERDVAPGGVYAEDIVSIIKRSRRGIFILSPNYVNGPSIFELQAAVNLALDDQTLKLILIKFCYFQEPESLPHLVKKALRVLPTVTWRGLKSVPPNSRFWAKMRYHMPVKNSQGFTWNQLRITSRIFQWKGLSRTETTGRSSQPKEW
Assay: cell-based or functional assay
I'd be grateful if you could share measured HEK-Blue activity, No BP, DF-10000 for these entries.
Give bare numbers.

binder="IL-18 variant K53H, S55H, N87D, H109I (ligand) YFGKLESKLSVIRNLNDQVLFIDQGNRPLFEDMTDSDMRDNAPRTIFIISMYHDHQPRGMAVTISVKSEKISTLSSENKIISFKEMDPPDNIKDTKSDIIFFQRSVPGIDNKMQFESSSYEGYFLASEKERDLFKLILKKEDELGDRSIMFTVQNED" value_kind="HEK-Blue activity, No BP, DF-10000" recorded_measurement=0.11

Turning to the following binder.
Find the measured HEK-Blue activity, No BP, DF-10000 of IL-18 variant K53G, S55V, R104Y, H109N (ligand) YFGKLESKLSVIRNLNDQVLFIDQGNRPLFEDMTDSDMRDNAPRTIFIISMYGDVQPRGMAVTISVKSEKISTLSSENKIISFKEMNPPDNIKDTKSDIIFFQYSVPGNDNKMQFESSSYEGYFLASEKERDLFKLILKKEDELGDRSIMFTVQNED and report it.
0.13
